- Tested on: Rattus norvegicus
- assay procedure: Activated partial thromboplastin time was determined after (iv) bolus dose of 0.75 mg/kg followed by an infusion of 50 ug/kg/min in rat arterial thrombosis model
- Type: functional
property: aPTT (s)
Just the number please, in s, no unit attached.

Below: 5 molecules and their reported aPTT.
{"columns": ["sample smiles", "property", "numeric readout"],
 "data": [
  ["N=C(N)N1CCC(CNC(=O)[C@@H]2CC[C@H]3CN(S(=O)(=O)C(c4ccccc4)c4ccccc4)CC(=O)N32)CC1", "aPTT", 28],
  ["N/C(=N/O)N1CCC(CNC(=O)[C@@H]2CC[C@H]3CN(C(=O)CC(c4ccccc4)c4ccccc4)CC(=O)N32)CC1", "aPTT", 23],
  ["N[C@H]1CC[C@H](CNC(=O)[C@@H]2CC[C@H]3CN(S(=O)(=O)C(c4ccccc4)c4ccccc4)CC(=O)N32)CC1", "aPTT", 44],
  ["N/C(=N/O)N1CCC(CNC(=O)[C@@H]2CC[C@H]3CN(S(=O)(=O)CC(c4ccccc4)c4ccccc4)CC(=O)N32)CC1", "aPTT", 26],
  ["N=C(N)N1CCC(CNC(=O)[C@@H]2CC[C@H]3CN(S(=O)(=O)CC(c4ccccc4)c4ccccc4)CC(=O)N32)CC1", "aPTT", 35]
]}

## Task Name the recorded aPTT for Nc1ccc(CNC(=O)[C@@H]2CC[C@H]3CN(S(=O)(=O)CC(c4ccccc4)c4ccccc4)CC(=O)N32)cn1 .
## Result 19

## Task Proceed to Cc1cc(C(=N)N)ccc1CNC(=O)[C@@H]1CC[C@H]2CN(S(=O)(=O)C(c3ccccc3)c3ccccc3)CC(=O)N21
## Result 42
